Please respond with reported melting point for every item in the list.

(Q) // Input: COc1cc(C)c(C(=O)c2c(OC)ncc(Cl)c2Cl)c(OC)c1OC [Compound No. 1-15] . Output its melting point only.
(A) 84 to 86 °C

(Q) // Input: COc1cc(C)c(C(=O)c2c(OC)ncc(Cl)c2OC)c(OC)c1OC [1-11] . Output its melting point only.
(A) 93 to 94 °C

(Q) // Input: COc1cc(C)c(C(=O)c2c(OC)ncc(C)c2C)c(OC)c1OC [1-20] . Output its melting point only.
(A) 84 to 86 °C

(Q) // Input: COc1cc(C)c(C(=O)c2c(F)ncc(C)c2I)c(OC)c1OC [1-18] . Output its melting point only.
(A) 140 to 141 °C

(Q) // Input: COc1cc(C)c(C(=O)c2c(Cl)ncc(C)c2Cl)c(OC)c1OC [1-16] . Output its melting point only.
(A) 78 to 80 °C

(Q) // Input: COc1cc(C)c(C(=O)c2c(F)ncc(C)c2C)c(OC)c1OC [1-19] . Output its melting point only.
(A) 91 to 92 °C

(Q) // Input: COc1cc(C)c(C(=O)c2c(OC)ncc(Cl)c2Br)c(OC)c1OC [Compound No. 1-1] . Output its melting point only.
(A) 92 to 94 °C

====

- Test system: cucumber powdery mildew
- experiment-summary: Test on preventive effect against cucumber powdery mildew
- Type: in vivo, Cucumber (cultivar: Suyo)
- details: Cucumis sativus, foliar spray before inoculation, examined 6 to 11 days after inoculation, read-out: controlling effects as compared with non-treated cases (area of sporogony)
Please respond with reported pest or weed control at 125 ppm for every item in the list.

(Q) // Input: CCOc1ncc(Cl)c(Br)c1C(=O)c1c(C)cc(OC)c(OC)c1OC [1-5] . Output its pest or weed control at 125 ppm only.
(A) ≥ 90%

(Q) // Input: CCOc1cc(C(=O)c2c(OC)ncc(Cl)c2Cl)c(C)cc1OC [1-4] . Output its pest or weed control at 125 ppm only.
(A) ≥ 90%

(Q) // Input: COc1cc(C)c(C(=O)c2c(SC)ncc(C)c2C)c(OC)c1OC [1-22] . Output its pest or weed control at 125 ppm only.
(A) ≥ 90%

(Q) // Input: COc1cc(C)c(C(=O)c2c(Cl)ncc(C)c2Cl)c(OC)c1OC [1-16] . Output its pest or weed control at 125 ppm only.
(A) ≥ 90%

(Q) // Input: COc1cc(C)c(C(=O)c2c(OC)cnc(Cl)c2C)c(OC)c1OC [2-1, reference compound] . Output its pest or weed control at 125 ppm only.
(A) ≥ 90%

Value source: patent US20060089390A1
